experiment: Dynamic vapor sorption (DVS), water sorption as Δm; type: physicochemical; settings: at 95 % relative humidity (maximum RH); stated in text
Attribute: change in mass (Δm)
Endpoint: change in mass (Δm) (%)

INSERT INTO measurements (compound, readout_value) VALUES
  ('NC(CO)(CO)CO.O=c1c2nc(Br)n([C@@H]3O[C@@H]4CO[P@@](O)(=S)O[C@H]4[C@H]3O)c2nc2[nH]c(-c3ccccc3)cn12', 32),
  ('O=c1c2nc(Br)n([C@@H]3O[C@@H]4CO[P@@](O)(=S)O[C@H]4[C@H]3O)c2nc2[nH]c(-c3ccccc3)cn12.O=c1c2nc(Br)n([C@@H]3O[C@@H]4CO[P@@](O)(=S)O[C@H]4[C@H]3O)c2nc2[nH]c(-c3ccccc3)cn12.c1ccc(CNCCNCc2ccccc2)cc1', 5),
  ('O=c1c2nc(Br)n([C@@H]3O[C@@H]4COP(=O)([S-])O[C@H]4[C@H]3O)c2nc2[nH]c(-c3ccccc3)cn12.O=c1c2nc(Br)n([C@@H]3O[C@@H]4COP(=O)([S-])O[C@H]4[C@H]3O)c2nc2[nH]c(-c3ccccc3)cn12.[Ca+2] (stereo partly shown)', 22);

----------
Attribute: solubility
experiment: Phase solubility in deionized water (HPLC); format: physicochemical; conditions: deionized H2O; quadruplicates
Endpoint: solubility

INSERT INTO assay_data (compound, readout_value) VALUES
  ('NC(CO)(CO)CO.O=c1c2nc(Br)n([C@@H]3O[C@@H]4CO[P@@](O)(=S)O[C@H]4[C@H]3O)c2nc2[nH]c(-c3ccccc3)cn12', '13.5 (±3.5) mg/mL'),
  ('N.O=c1c2nc(Br)n([C@@H]3O[C@@H]4COP(=O)(S)O[C@H]4[C@H]3O)c2nc2[nH]c(-c3ccccc3)cn12 (stereo partly drawn)', '7.9 (±8.0) mg/mL'),
  ('O=c1c2nc(Br)n([C@@H]3O[C@@H]4CO[P@@](O)(=S)O[C@H]4[C@H]3O)c2nc2[nH]c(-c3ccccc3)cn12.c1ccc(CCNCc2ccccc2)cc1', '0.05 (±0.03) mg/mL');

----------
test: pH-dependent solubility in acidic buffer 0.1 M HCl(aq); assay type: physicochemical; conditions: 0.1 M HCl(aq) acidic buffer, simulated gastric fluid, thermodynamic from solid, pH 1, read-out: Solubility in 0.1M HCl(aq), µg / mL (SD)
Endpoint: solubility at 24 h

INSERT INTO results (compound, readout_value) VALUES
  ('O=c1c2nc(Br)n(C3OC4COP(O)(=S)OC4C3O)c2nc2[nH]c(-c3ccccc3)cn12 (stereo not shown)', '5 µg/mL');

----------
assay: Polymorph screen, approximate solubility in solvents (UHPLC); type: physicochemical; details: organic solvent or mixture, thermodynamic from solid; solvent DMSO; solution
Endpoint: solubility

INSERT INTO results (compound, endpoint, readout_value) VALUES
  ('O=c1c2nc(Br)n(C3OC4COP(O)(=S)OC4C3O)c2nc2[nH]c(-c3ccccc3)cn12 (stereo not shown)', 'solubility', '> 40 mg/mL');

----------
assay: Polymorph screen, approximate solubility in solvents (UHPLC); type: physicochemical; conditions: organic solvent or mixture, thermodynamic from solid; solvent 2‐PrOH
Endpoint: solubility (µg/mL)

INSERT INTO assay_data (compound, unit_label, readout_value) VALUES
  ('O=c1c2nc(Br)n(C3OC4COP(O)(=S)OC4C3O)c2nc2[nH]c(-c3ccccc3)cn12 (stereo not shown)', 'µg/mL', 105);
